test system: SW620; experiment: MTT assay, SW620 colorectal cancer cell line; assay type: cell-based; settings: incubated 18 hours, hydrochloride, read-out: inhibitory activity against different cancer cells (IC50)
Structures can show the parent of a compound that is named as a salt.
endpoint.label: pIC50
Field pIC50 (float): negative decimal logarithm of the concentration in molar.

QUERY: Give a short answer stating reported pIC50 for CC1=C2CC[C@@](C)(O)[C@@H]2[C@H]2OC(=O)[C@@H](CN(C)C)[C@@H]2CC1 [Compound V, hydrochloride] .
RESULT: 7.87

----------
system: SW620; test: MTT assay, SW620 colorectal cancer cell line; format: cell-based; details: incubated 18 hours, read-out: inhibitory activity against different cancer cells (IC50)
endpoint.label: IC50 (nM)
# value in nM; strip the unit string

QUERY: Give a short answer stating reported IC50 for CC1=C2CC[C@@](C)(O)[C@@H]2[C@H]2OC(=O)[C@@H](CN(C)C)[C@@H]2CC1 [Compound II] .
RESULT: 5.8

----------
Record form. Attribute: IC50. Fill in for each entry.
system: GL15; test: MTT assay, GL15 neuroblastoma cell lines; assay type: cell-based; details: Neuroblastoma cell, 18 h, incubated 18 hours, read-out: inhibitory activity against different cancer cells (IC50)
# value in nM; strip the unit string

QUERY: Give a short answer stating reported IC50 for C=C1C(=O)O[C@H]2[C@H]1CC[C@]1(C)O[C@@]13CC[C@@](C)(O)[C@H]23 [Compound IV, 1,10-Epoxymicheliolide] .
RESULT: 21.5

QUERY: Give a short answer stating reported IC50 for C=C1C(=O)O[C@H]2[C@H]1CCC(C)=C1CC[C@@](C)(OC(=O)CC)[C@@H]12 [Compound III, 4-propionylmicheliolide] .
RESULT: 14.3

----------
system: HeLa; test: MTT assay, HeLa uterine cervical cancer cell lines; assay type: cell-based; conditions: incubated 18 hours, read-out: inhibitory activity against different cancer cells (IC50)
endpoint.label: pIC50
Field pIC50 (float): negative decimal logarithm of the concentration in molar.

QUERY: Give a short answer stating reported pIC50 for `CC1=C2CC[C@@](C)(O)[C@@H]2[C@H]2OC(=O)[C@@H](CN(C)C)[C@@H]2CC1` .
RESULT: 8.03

----------
system: A549; experiment: MTT assay, A549 lung cancer cell lines; assay type: cell-based; settings: incubated 18 hours, read-out: inhibitory activity against different cancer cells (IC50)
endpoint.label: IC50 (nM)
# value in nM; strip the unit string

QUERY: Give a short answer stating reported IC50 for CC1=C2CC[C@@](C)(O)[C@@H]2[C@H]2OC(=O)[C@@H](CN(C)C)[C@@H]2CC1 [Compound II] .
RESULT: 7.2

----------
tested on: CNE-1; experiment: MTT assay, CNE-1 high differentiation nasopharyngeal carcinoma cell line; assay type: cell-based; details: incubated 18 hours, read-out: inhibitory activity against different cancer cells (IC50)
endpoint.label: pIC50
Field pIC50 (float): negative decimal logarithm of the concentration in molar.

QUERY: Give a short answer stating reported pIC50 for `CC1=C2CC[C@@](C)(O)[C@@H]2[C@H]2OC(=O)[C@@H](CN(C)C)[C@@H]2CC1` .
RESULT: 7.95
